target: UniProt P28223; assay: [3H]AA release from HEK-5-HT2A cells; format: cell-based
Record form. Attribute: pEC50. Fill in for each entry.
Answers are plain numbers, as −log10 of the molar value.

Consider the reported pEC50 for these compounds:
COMPOUND	pEC50
COc1cc(CC(C)N)c(OC)cc1Cl (stereo not drawn)	8.54
CN(C)CCc1c[nH]c2ccccc12 [DMT, N,N,-dimethyltryptamine, reference compound]	6.59
COc1cc(CCN)c(OC)cc1Cl	7.86
COc1cc(CCN)c(OC)cc1C	6.82
CCc1cc(OC)c(CCN)cc1OC	8.15

Turning now to a further compound:
[ask] Find the recorded pEC50 belonging to `CCSc1cc(OC)c(CCN)cc1OC` and report it.
[reply] 8.64

###

target: human 5-HT2A receptor (Homo sapiens); assay: [3H]AA release from HEK-5-HT2A cells; format: cell-based; details: read-out: 5-HT2A Function [3H]AA release % maximal effect
Record form. Attribute: Emax. Fill in for each entry.
Numbers only, in %.

Okay, here is my list. What is Emax for each of these?
1. CCSc1cc(OC)c(CCN)cc1OC
2. CN(C)CCc1c[nH]c2ccccc12 [DMT, N,N,-dimethyltryptamine, reference compound]
3. COc1cc(CCN)c(OC)cc1C
4. COc1cc(CCN)c(OC)cc1Cl
5. COc1cc(CC(C)N)c(OC)cc1Cl (stereo not shown)
6. COc1cc(CCN)c(OC)cc1I
7. CCc1cc(OC)c(CCN)cc1OC

[reply]
1. 107
2. 105
3. 81.1
4. 64.2
5. 81
6. 32.5
7. 65

###

system: rats trained to discriminate DOM (0.5 mg/kg) from saline; format: in vivo, rat; conditions: 15 min pretreatment
ENDPOINT_LABEL: Rate of responding at dose of maximum DAR
The reply must contain the numeric value and, after it, the unit.

MOLECULE	RESULT
COc1cc(CC(C)N)c(OC)cc1Cl (stereo not shown) [DOC, 2,5-Dimethoxy-4-chloroamphetamine]	0.708±0.072 resp/s

Okay, here is my list. What is Rate of responding at dose of maximum DAR for each of these?
1. CCc1cc(OC)c(CCN)cc1OC [2C-E, 2,5-dimethoxy-4-ethylphenethylamine]
2. COc1cc(CCN)c(OC)cc1C [2C-D, 2,5-dimethoxy-4-methylphenethylamine]
3. COc1cc(CCN)c(OC)cc1Cl [2C-C, 2,5-dimethoxy-4-chlorophenethylamine]

[reply]
1: 0.576±0.087 resp/s; 2: 0.383±0.038 resp/s; 3: 0.366±0.070 resp/s

###

target: hSERT (Homo sapiens, UniProt P31645); experiment: [3H]Serotonin release, HEK-hSERT cells; format: cell-based
Sequence (P31645 whole entry): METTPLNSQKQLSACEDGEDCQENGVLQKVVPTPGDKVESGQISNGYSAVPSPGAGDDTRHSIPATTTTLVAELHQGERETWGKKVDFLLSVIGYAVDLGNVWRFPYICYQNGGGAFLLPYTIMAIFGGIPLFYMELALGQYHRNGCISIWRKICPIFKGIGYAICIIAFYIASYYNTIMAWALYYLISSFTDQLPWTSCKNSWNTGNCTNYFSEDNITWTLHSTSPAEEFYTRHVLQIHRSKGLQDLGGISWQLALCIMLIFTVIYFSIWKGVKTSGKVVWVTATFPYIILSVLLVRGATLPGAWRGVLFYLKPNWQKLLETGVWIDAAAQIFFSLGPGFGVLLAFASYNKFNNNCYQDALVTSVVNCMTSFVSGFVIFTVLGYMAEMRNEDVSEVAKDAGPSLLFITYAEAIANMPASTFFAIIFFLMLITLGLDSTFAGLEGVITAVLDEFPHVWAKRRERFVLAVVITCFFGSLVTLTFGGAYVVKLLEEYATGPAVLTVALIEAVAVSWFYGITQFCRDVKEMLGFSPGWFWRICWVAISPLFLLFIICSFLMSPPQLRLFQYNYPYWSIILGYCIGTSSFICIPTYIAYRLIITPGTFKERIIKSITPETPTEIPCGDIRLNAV
ENDPOINT_LABEL: [3H]Serotonin release % PCA maximal effect

COMPOUND	RESULT
COc1cc(CC(C)N)c(OC)cc1Cl (stereo not drawn)	ND Minimal
COC(=O)[C@H]1[C@@H](OC(=O)c2ccccc2)C[C@@H]2CC[C@H]1N2C [Cocaine, reference compound]	ND Minimal
CCc1cc(OC)c(CCN)cc1OC	ND Minimal

###

target: hNET (Homo sapiens); assay: cell-based; conditions: read-out: [3H]NE uptake IC50
ENDPOINT_LABEL: IC50

[ask] What is its IC50 for hNET (Homo sapiens)? Entry: CCN(CC)C(=O)[C@@H]1C=C2c3cccc4[nH]cc(c34)C[C@H]2N(C)C1 [LSD, lysergic acid diethylamide, reference compound]
[reply] > 10 µM

###

target: hSERT (Homo sapiens, UniProt P31645); assay: [125I]RTI-55 binding, HEK-hSERT cells
Record form. Attribute: Ki. Fill in for each entry.

Consider the reported Ki for these compounds:
COMPOUND	TESTED_SYSTEM	ENDPOINT_LABEL	RESULT
CN[C@@H](C)Cc1ccccc1 [METH, methamphetamine, reference compound]	hSERT (Homo sapiens, UniProt P31645)	Ki	188 µM
COc1cc(CCN)c(OC)cc1I [2C-I, 2,5-dimethoxy-4-iodophenethylamine]	hSERT (Homo sapiens, UniProt P31645)	Ki	0.95 µM
COc1cc(CCN)c(OC)cc1C [2C-D, 2,5-dimethoxy-4-methylphenethylamine]	hSERT (Homo sapiens, UniProt P31645)	Ki	> 10 µM
COc1cc(CC(C)N)c(OC)cc1Cl (stereo not shown) [DOC, 2,5-Dimethoxy-4-chloroamphetamine]	hSERT (Homo sapiens, UniProt P31645)	Ki	> 10 µM
CCSc1cc(OC)c(CCN)cc1OC [2C-T-2, 2,5-dimethoxy-4-ethylthiophenethylamine]	hSERT (Homo sapiens, UniProt P31645)	Ki	> 9.4 µM

Okay, here is my list. What is Ki for each of these?
1. CCc1cc(OC)c(CCN)cc1OC [2C-E, 2,5-dimethoxy-4-ethylphenethylamine]
2. COc1cc(CCN)c(OC)cc1Cl [2C-C, 2,5-dimethoxy-4-chlorophenethylamine]

[reply]
> 10 µM
> 10 µM

###

biological target: UniProt Q01959; test: [3H]Dopamine uptake, HEK-hDAT cells; type: cell-based
Sequence (Q01959 whole entry): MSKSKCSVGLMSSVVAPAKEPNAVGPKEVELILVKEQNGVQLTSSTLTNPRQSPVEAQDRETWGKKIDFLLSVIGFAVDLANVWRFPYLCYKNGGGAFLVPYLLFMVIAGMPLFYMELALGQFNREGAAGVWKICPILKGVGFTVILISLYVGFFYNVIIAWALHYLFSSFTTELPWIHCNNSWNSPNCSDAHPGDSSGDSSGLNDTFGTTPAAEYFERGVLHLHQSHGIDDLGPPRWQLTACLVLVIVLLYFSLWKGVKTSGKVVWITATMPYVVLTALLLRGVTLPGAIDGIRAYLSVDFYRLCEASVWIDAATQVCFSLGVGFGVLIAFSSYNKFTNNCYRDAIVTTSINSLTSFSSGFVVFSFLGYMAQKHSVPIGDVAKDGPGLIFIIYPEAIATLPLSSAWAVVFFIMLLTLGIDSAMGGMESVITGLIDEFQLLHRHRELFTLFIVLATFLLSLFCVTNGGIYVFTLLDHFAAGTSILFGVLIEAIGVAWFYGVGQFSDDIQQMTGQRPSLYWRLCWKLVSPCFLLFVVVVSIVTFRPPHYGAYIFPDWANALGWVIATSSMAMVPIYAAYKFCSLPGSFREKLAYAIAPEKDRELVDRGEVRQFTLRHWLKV
Record form. Attribute: IC50. Fill in for each entry.

Consider the reported IC50 for these compounds:
COMPOUND	RESULT
CCSc1cc(OC)c(CCN)cc1OC [2C-T-2, 2,5-dimethoxy-4-ethylthiophenethylamine]	> 10 µM
CN[C@@H](C)Cc1ccccc1 [METH, methamphetamine, reference compound]	0.056 µM
CCc1cc(OC)c(CCN)cc1OC [2C-E, 2,5-dimethoxy-4-ethylphenethylamine]	> 10 µM
COc1cc(CCN)c(OC)cc1C [2C-D, 2,5-dimethoxy-4-methylphenethylamine]	> 10 µM
COc1cc(CCN)c(OC)cc1I [2C-I, 2,5-dimethoxy-4-iodophenethylamine]	> 9.6 µM
COc1cc(CCN)c(OC)cc1Cl [2C-C, 2,5-dimethoxy-4-chlorophenethylamine]	> 10 µM

Turning now to a further compound:
[ask] Find the recorded IC50 belonging to COc1cc(CC(C)N)c(OC)cc1Cl (stereo not shown) [DOC, 2,5-Dimethoxy-4-chloroamphetamine] and report it.
[reply] > 10 µM

###

target: hNET (Homo sapiens, UniProt P23975); experiment: cell-based
Sequence (P23975 whole entry): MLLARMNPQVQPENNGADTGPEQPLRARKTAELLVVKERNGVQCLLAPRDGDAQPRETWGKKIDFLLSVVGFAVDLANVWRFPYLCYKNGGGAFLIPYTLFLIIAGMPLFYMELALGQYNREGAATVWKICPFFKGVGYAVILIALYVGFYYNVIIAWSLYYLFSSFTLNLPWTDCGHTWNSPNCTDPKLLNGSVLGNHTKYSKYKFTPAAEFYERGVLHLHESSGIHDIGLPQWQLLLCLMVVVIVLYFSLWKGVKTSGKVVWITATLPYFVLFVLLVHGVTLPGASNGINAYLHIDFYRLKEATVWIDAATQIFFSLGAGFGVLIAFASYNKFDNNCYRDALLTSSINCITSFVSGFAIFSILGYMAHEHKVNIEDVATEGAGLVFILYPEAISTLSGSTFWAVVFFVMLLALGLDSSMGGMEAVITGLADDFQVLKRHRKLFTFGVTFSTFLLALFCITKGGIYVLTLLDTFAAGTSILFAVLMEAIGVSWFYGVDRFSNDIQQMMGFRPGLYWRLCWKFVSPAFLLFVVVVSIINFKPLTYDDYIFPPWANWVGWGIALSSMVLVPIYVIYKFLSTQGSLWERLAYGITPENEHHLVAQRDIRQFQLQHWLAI
pIC50: −log10 of the molar value.
Record form. Attribute: pIC50. Fill in for each entry.

COMPOUND	TESTED_SYSTEM	pIC50
COc1cc(CC(C)N)c(OC)cc1Cl (stereo not shown) [DOC, 2,5-Dimethoxy-4-chloroamphetamine]	hNET (Homo sapiens, UniProt P23975)	< 5.08
CCc1cc(OC)c(CCN)cc1OC [2C-E, 2,5-dimethoxy-4-ethylphenethylamine]	hNET (Homo sapiens, UniProt P23975)	< 5.01
COc1cc(CCN)c(OC)cc1C [2C-D, 2,5-dimethoxy-4-methylphenethylamine]	hNET (Homo sapiens, UniProt P23975)	< 5.04

Turning now to a further compound:
[ask] Find the recorded pIC50 belonging to COc1cc(CCN)c(OC)cc1Cl [2C-C, 2,5-dimethoxy-4-chlorophenethylamine] and report it.
[reply] < 5.02

###

system: rats trained to discriminate MDMA (1.5 mg/kg) from saline; assay type: in vivo, rat; conditions: MDMA-trained rats; 15 min pretreatment
Record form. Attribute: Rate of responding at dose of maximum DAR. Fill in for each entry.
One number for each entry, in resp/s.

Consider the reported Rate of responding at dose of maximum DAR for these compounds:
COMPOUND	NUMERIC_READOUT
COc1cc(CC(C)N)c(OC)cc1Cl (stereo not drawn)	0.449
COc1cc(CCN)c(OC)cc1I	0.453
CCSc1cc(OC)c(CCN)cc1OC	0.448
COc1cc(CCN)c(OC)cc1C	0.402
COc1cc(CCN)c(OC)cc1Cl	0.244

[ask] What is its Rate of responding at dose of maximum DAR for rats trained to discriminate MDMA (1.5 mg/kg) from saline? Entry: `CCc1cc(OC)c(CCN)cc1OC`
[reply] 0.053

###

Record form. Attribute: pKi. Fill in for each entry.
biological target: human 5-HT2A receptor (Homo sapiens, UniProt P28223)
Sequence (P28223 whole entry): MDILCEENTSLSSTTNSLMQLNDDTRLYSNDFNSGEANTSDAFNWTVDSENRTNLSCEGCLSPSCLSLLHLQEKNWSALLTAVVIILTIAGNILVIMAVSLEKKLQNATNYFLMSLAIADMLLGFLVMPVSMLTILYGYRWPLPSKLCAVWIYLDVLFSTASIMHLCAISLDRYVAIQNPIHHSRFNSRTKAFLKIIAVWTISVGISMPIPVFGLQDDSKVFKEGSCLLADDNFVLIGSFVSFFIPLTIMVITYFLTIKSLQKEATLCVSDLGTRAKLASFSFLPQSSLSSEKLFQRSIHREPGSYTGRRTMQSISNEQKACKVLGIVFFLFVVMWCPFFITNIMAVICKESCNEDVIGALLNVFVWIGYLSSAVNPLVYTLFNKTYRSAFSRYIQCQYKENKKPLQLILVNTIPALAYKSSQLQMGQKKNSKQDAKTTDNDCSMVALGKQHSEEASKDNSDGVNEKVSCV
Give bare numbers, as −log10 of the molar value.

Consider the reported pKi for these compounds:
COMPOUND	pKi
COc1cc(CC(C)N)c(OC)cc1C (stereo not shown) [DOM, 2,5-dimethoxy-4-methylamphetamine, reference compound]	8.09
CN[C@@H](C)Cc1ccccc1 [METH, methamphetamine, reference compound]	4.38
CNC(C)Cc1ccc2c(c1)OCO2 (stereo not shown) [MDMA, 3,4-methylenedioxymethamphetamine, reference compound]	4.68

Turning now to a further compound:
[ask] What is its pKi for human 5-HT2A receptor (Homo sapiens, UniProt P28223)? Entry: `COc1cc(CCN)c(OC)cc1I`
[reply] 8.03

###

Record form. Attribute: IC50. Fill in for each entry.
molecular target: hSERT (Homo sapiens); test: [3H]Serotonin uptake, HEK-hSERT cells; assay type: cell-based

Consider the reported IC50 for these compounds:
COMPOUND	RESULT
COc1cc(CCN)c(OC)cc1Cl	> 9.6 µM
CCc1cc(OC)c(CCN)cc1OC	> 7.5 µM
COc1cc(CCN)c(OC)cc1I	5.6 µM
COc1cc(CCN)c(OC)cc1C	> 8.4 µM
CCSc1cc(OC)c(CCN)cc1OC	> 8.6 µM

[ask] Find the recorded IC50 belonging to COc1cc(CC(C)N)c(OC)cc1Cl (stereo not drawn) and report it.
[reply] > 8.6 µM
